System: β-galactosidase in CMV-LacZ C2C12 myotubes
Test: CMV-LacZ secondary screen in C2C12 myotubes (β-Gal stabilizing assay)
Assay type: cell-based, mouse
Settings: 20 uM; C2C12 CMV-LacZ myotubes; fold relative to DMSO
Description: In order to determine compounds that acted to stabilize β-gal in myogenic cells, a CMV-LacZ C2C12 cell line was used in a secondary screen. The EGFP gene from the pEGFP (Clontech) vector was replaced by LACZ PCR product with digests of the vector/PCR product performed using EcoRI (NEB) and NotI (NEB) and ligated using T4 DNA Ligase (NEB) following standard procedures to produce the CMV-LACZ vector. […]
RESULT TYPE: CMV-LACZ in Myotubes, signal relative to DMSO
One number for each entry.

N#Cc1ccc(OCC(O)CS(=O)(=O)c2ccccc2)cc1 (stereo not drawn) = 1.133
Cc1nc(Nc2ccccc2F)c2oc3ccccc3c2n1 = 1.0710
N#C/C(=C/c1ccc(N2CCOCC2)o1)C(=O)Nc1ccccc1 = 1.4900

List reported CMV-LACZ in Myotubes, signal relative to DMSO for each of these compounds:
1. O=C(COC(=O)Cn1cnc2ccccc21)Nc1cccc([N+](=O)[O-])c1
2. CN(C)C1(CN=Cc2cc(Cl)cc([N+](=O)[O-])c2O)CCCCC1
3. COc1cccc(C(=O)COc2ccc3ccc(=O)oc3c2)c1
4. CCNC(=O)C(=O)Nc1cc2c3c(c1)CCN3C(=O)CC2
5. CNC(=O)/C(=C\c1cccc(Oc2ccccc2)c1)NC(=O)c1ccccc1
6. O=C(N[C@@H](Cc1c[nH]c2ccccc12)C(=O)O)C1CCN(S(=O)(=O)c2cccs2)CC1

1. 1.032
2. 1.175
3. 0.9918
4. 1.3337
5. 1.019
6. 1.1378

====

Exercise: for every item that follows, state its recorded activation at 7.66 µM.
test system: α7 integrin (LacZ reporter in α7LacZ+/− myoblasts); assay: qHTS of the LOPAC library and MLSMR (online screen, α7LacZ+/− myoblasts); conditions: Mus musculus, Myoblast, 48 h, read-out: Activity at 7.660 uM [%] **
Numbers only, in %.

CC1CCCCC12NC(=O)N(CC(=O)OCc1cccc(F)c1)C2=O (stereo not shown) = 69.8
O=c1oc2c(-c3cccc(F)c3)cc(O)cc2s1 = 87.3
COCc1c(C(=O)OCc2nc(=O)c3sccc3[nH]2)oc2ccccc12 = 60.6

Output measured activation at 7.66 µM for this item: COc1ccc(CN2CCNC(=O)C2CC(=O)NCCc2c[nH]c3ccccc23)c(OC)c1 (stereo not shown)
16.4

====

test system: β-galactosidase in CMV-LacZ C2C12 myoblasts; assay: CMV-LacZ secondary screen in C2C12 myoblasts (β-Gal stabilizing assay); format: cell-based, mouse; details: 10 uM; CMV-LacZ C2C12 myoblasts
RESULT TYPE: CMV-LACZ in Myoblasts (β-galactosidase activity relative to DMSO)
One number for each entry.

CC(C)CN(C(=O)c1cccc(Cl)c1)c1c(N)n(Cc2ccccc2)c(=O)[nH]c1=O = 0.9725
COc1ccccc1NS(=O)(=O)c1cc(NC(=O)c2ccc(Cl)nc2)ccc1N1CCCC1 = 1.1575
CN(CCC1CCCCO1)C(=O)CCc1nnc(CCCCc2ccccc2)o1 (stereo not shown) = 0.9907

// input: 4 compounds below; output: CMV-LACZ in Myoblasts (β-galactosidase activity relative to DMSO) for each
1. CN1C(=O)N(CC(=O)N2CCN(S(=O)(=O)c3ccc(Cl)s3)CC2)C(=O)C12CCCCC2
2. O=C(Nc1ccccc1OC(=O)c1ccc(Cl)cc1)c1ccc(Cl)cc1
3. Cn1cc(CN2CCC(C(=O)Nc3cccc(-c4cscn4)c3)CC2)cn1
4. Cc1ccccc1NC(=O)NCCCN1CCN(C)CC1

0.9939
0.8678
0.9597
0.8403

Record CMV-LACZ in Myoblasts (β-galactosidase activity relative to DMSO) for all entries; do not skip any.
1. Cn1c(-c2ccccc2)cc2ccccc21
2. CCOc1ccc(Br)cc1S(=O)(=O)Nc1ccc(C(=O)Nc2ccccc2OC)cc1
3. CCN(CC(=O)NCc1cccs1)C(=O)COc1ccc(C(N)=O)cc1
4. Cc1nc(Nc2ccccc2F)c2oc3ccccc3c2n1
5. CC(C)c1ccc(OC(=O)c2cccc(S(=O)(=O)N3CCN(C)CC3)c2)cc1
6. Cn1ccc(C(=O)Nc2cccnc2Cl)n1
7. CCOC(=O)c1sc(=N)n(-c2ccc(OC)cc2)c1C
8. Cn1c(O)c(C(C#N)=C2N=c3ccccc3=N2)c2ccccc21

1. 1.0294
2. 0.8344
3. 1.0313
4. 1.1943
5. 1.1138
6. 1.2999
7. 0.9296
8. 1.3388

Value sought for every listed compound: CMV-LACZ in Myoblasts (β-galactosidase activity relative to DMSO).
1. CCc1c(C)sc(NC(=O)c2ccco2)c1C#N
2. CCc1ccc(S(=O)(=O)NCCOc2cccc3cccnc23)cc1
3. N#Cc1nc(COc2ccccc2)oc1N1CCCC1
4. O=C(NCCc1ccccc1)C1CCC(=O)N1C1CCCC1 (stereo not shown)
5. O=C(COc1ccc(Cl)cc1)N1CCN(C2CCCC2)CC1.O=C(O)C(=O)O
6. CCN(CC)C(=O)c1sc2nc(-c3ccc(OC)cc3)cn2c1C
7. CCOC(=O)c1cc(C(=O)OCC)c(=O)[nH]c1SCc1ccccc1
8. O=c1[nH]c(SCc2ccc(Cl)cc2)nc2ccsc12

1: 1.1645; 2: 0.9459; 3: 1.0435; 4: 1.0036; 5: 0.9955; 6: 1.1969; 7: 1.2178; 8: 1.0994

====

test system: α7 integrin (LacZ reporter in α7+/LacZ myotubes); test: Myotube α7 integrin FDG assay (Burkin assay in myotubes, 96-well); type: cell-based, mouse; details: myotubes, maximum response
For each record, write down the corresponding MT FOLD INCREASE.
Answers are plain numbers, in fold.

The following molecules have reported results that may help.
CC1CCCCN1c1ncnc(N)c1[N+](=O)[O-] (stereo not shown) = 1.7
C[C@H]1CNC(=O)c2c(C(=O)Nc3ccc(CNC(=O)OC(C)(C)C)cc3)ncn21 = 2.0
Nc1ncnc(N2CCc3ccccc32)c1[N+](=O)[O-] = 1.7

Enter MT FOLD INCREASE (test system α7 integrin (LacZ reporter in α7+/LacZ myotubes)) for `O=C(Nc1ccc(N2CCN(C(=O)c3ccccc3F)CC2)cc1)c1cncc(Br)c1`
1.5

====

tested on: β-galactosidase in CMV-LacZ C2C12 myoblasts; assay: CMV-LacZ secondary screen in C2C12 myoblasts (β-Gal stabilizing assay); format: cell-based, mouse; settings: 5 uM; CMV-LacZ C2C12 myoblasts
RESULT TYPE: CMV-LACZ in Myoblasts (β-galactosidase activity relative to DMSO)
Give bare numbers.

Some compounds with known CMV-LACZ in Myoblasts (β-galactosidase activity relative to DMSO) results, for comparison:
Cc1nnc(-c2ccc(N3CCOCC3)c([N+](=O)[O-])c2)o1 = 0.9009
COc1cc(C=O)ccc1OCC(=O)Nc1ccc2c(c1)OCO2 = 0.9251
COC(=O)c1cc(S(=O)(=O)NCC2CCN(Cc3ccc(Cl)cc3)CC2)cn1C = 0.9043

Note CMV-LACZ in Myoblasts (β-galactosidase activity relative to DMSO) for the compound shown: `Nc1ncnc(NCc2ccccc2)c1[N+](=O)[O-]`
0.8824

====

Would you mind telling me the reported Burkin Assay in Myoblasts, signal relative to DMSO of each entry?
test system: α7 integrin (LacZ reporter in α7βgal+/− myoblasts); assay: Myoblast α7+/LacZ integrin FDG assay (Burkin assay in myoblasts, 96-well); type: cell-based, mouse; settings: 20 uM; α7+/LacZ myoblasts, 96-well
Give bare numbers.

COc1ccc(N2CCN(CCC3Oc4cc([N+](=O)[O-])ccc4NC3=O)CC2)cc1 (stereo not drawn) = 0.813
O=C(N[C@@H](Cc1c[nH]c2ccccc12)C(=O)O)C1CCN(S(=O)(=O)c2cccs2)CC1 = 0.9747

# input for lookup
In one line, give reported Burkin Assay in Myoblasts, signal relative to DMSO of the entry CC1CCCCC12NC(=O)N(CC(=O)OCc1cccc(F)c1)C2=O (stereo not drawn) .
0.822

====

Would you kindly list fold induction at 20 µM for each of these compounds?
tested on: β-galactosidase in CMV-LacZ C2C12 myotubes; assay: CMV-LacZ secondary screen in C2C12 myotubes (β-Gal stabilizing assay); format: cell-based, mouse; details: Mus musculus, C2C12, read-out: CMV-LACZ in Myotubes, signal relative to DMSO, 20 uM; C2C12 CMV-LacZ myotubes; fold relative to DMSO
Numbers only.

CCOC(=O)C1CCCN(C(=O)CNS(=O)(=O)c2ccc(Br)s2)C1 (centres unmarked) = 0.987

Provide fold induction at 20 µM for all items below, preserving their order.
1. Cc1c(C(=O)N2CCCCC2)c(S(=O)(=O)Nc2cccc(Br)c2)c(C)n1C
2. COc1ccccc1NC(=O)CCCc1c[nH]c2ccccc12
3. COc1ccc(NC(=O)c2ccc3nc(C)sc3c2)cc1
4. COc1ccc(-c2cc(COc3ccccc3)on2)cc1

1. 0.986
2. 0.988
3. 1.02
4. 0.992
